Numbers sourced from ChEMBL document CHEMBL1133257.

Provide the reported IC50 of each item.
Molecular target: Gonadotropin-releasing hormone receptor (Homo sapiens)
Sequence (P30968 whole entry): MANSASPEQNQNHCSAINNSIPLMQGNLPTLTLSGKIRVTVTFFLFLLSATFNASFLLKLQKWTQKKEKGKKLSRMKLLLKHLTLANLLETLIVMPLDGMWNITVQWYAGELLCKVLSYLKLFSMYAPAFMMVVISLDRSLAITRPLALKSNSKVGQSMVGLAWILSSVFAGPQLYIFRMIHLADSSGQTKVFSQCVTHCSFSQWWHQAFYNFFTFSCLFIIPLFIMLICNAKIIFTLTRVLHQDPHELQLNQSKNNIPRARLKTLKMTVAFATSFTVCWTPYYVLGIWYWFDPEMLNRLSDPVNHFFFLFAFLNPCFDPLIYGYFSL
Assay: Inhibition of recombinant human Gonadotropin-releasing hormone receptor

Quick note, IC50 for `Cc1ccc(-c2c(O)nc3cc(Cl)c(C(=O)Nc4ccncn4)cc3c2OCC[C@@H]2CCCCN2)cc1C` landed at 0.7 nM

IC50 for `Cc1cc(C)cc(-c2c(O)nc3cc(Cl)c(NC(=O)c4cnccn4)cc3c2OCC[C@@H]2CCCCN2)c1` is 2 nM

Reported IC50 ( `Cc1cc(C)cc(-c2c(O)nc3cc(Cl)c(NC(=O)Nc4cncnc4)cc3c2OCC[C@@H]2CCCCN2)c1` ) = 57 nM

In plain terms, `Cc1cc(-c2c(O)nc3cc(Cl)c(C(=O)Nc4ccncn4)cc3c2OCC[C@@H]2CCCCN2)ccc1I` has a documented IC50 of 0.5 nM

Consider `O=C(Nc1ccncn1)c1cc2c(OCC[C@@H]3CCCCN3)c(-c3ccc4c(c3)CCC4)c(O)nc2cc1Cl` . Its measured IC50 is 0.7 nM

###

biological target: Gonadotropin-releasing hormone receptor (Rattus norvegicus); assay: Compound was evaluated for its antagonism in rat primary pituitary cell assay (rLH); type: functional, cell-based, Pituitary gland cell
Assay Endpoint: log10 IC50 (log10 of the value in nM)
Reminder: these figures are log10 of reported IC50, in nM before transformation.

Entry Cc1cc(C)cc(-c2c(O)nc3cc(Cl)c(CC(=O)Nc4ccncn4)cc3c2OCCC2CCCCN2)c1 (stereo unspecified) under Gonadotropin-releasing hormone receptor (Rattus norvegicus) had log10 IC50 of 3.40

Entry Cc1cc(C)cc(-c2c(O)nc3cc(Cl)c(NC(=O)Nc4cccnc4)cc3c2OCCC2CCCCN2)c1 (stereo unspecified) , Gonadotropin-releasing hormone receptor (Rattus norvegicus) data, log10 IC50 value: 3.11

Param item: Cc1cc(C)cc(-c2c(O)nc3cc(Cl)c(NC(=O)Nc4ccccn4)cc3c2OCCC2CCCCN2)c1 (stereo unspecified) ; param system: Gonadotropin-releasing hormone receptor (Rattus norvegicus); output log10 IC50: 2.67

Lab entry: Gonadotropin-releasing hormone receptor (Rattus norvegicus) assay, compound Cc1cc(C)cc(-c2c(O)nc3cc(Cl)c(NC(=O)c4cnccn4)cc3c2OCCC2CCCCN2)c1 (stereo unspecified) , log10 IC50 = 3.28

The reported log10 IC50 value, Gonadotropin-releasing hormone receptor (Rattus norvegicus), for Cc1cc(C)cc(-c2c(OCCC3CCCCN3)c3cc(NC(=O)Nc4ccccc4)c(Cl)cc3[nH]c2=O)c1 (stereo unspecified) reads 3.52

For the compound Cc1cc(C)cc(-c2c(O)nc3cc(Cl)c(NC(=O)Nc4cnccn4)cc3c2OCCC2CCCCN2)c1 (stereo unspecified) , the measured log10 IC50 on Gonadotropin-releasing hormone receptor (Rattus norvegicus) was 1.75

###

assay: Compound was evaluated for its antagonism in CHO cells expressing the human receptor (hPI); assay type: functional, cell-based
Answer each item with its documented pIC50.
// pIC50: -log10(molar conc.)

// `O=C(Nc1ccncn1)c1cc2c(OCC[C@@H]3CCCCN3)c(-c3cc(Cl)cc(Cl)c3)c(O)nc2cc1Cl` : pIC50 value = 8.07

Value of measured pIC50 for the entry `O=C(Nc1ccncn1)c1cc2c(OCC[C@@H]3CCCCN3)c(-c3ccc(Cl)c(Cl)c3)c(O)nc2cc1Cl` : 8.11

Entry `Cc1ccc(-c2c(O)nc3cc(Cl)c(C(=O)Nc4ccncn4)cc3c2OCC[C@@H]2CCCCN2)cc1C` , pIC50 reported as 8.19

Record `O=C(Nc1ccncn1)c1cc2c(OCC[C@@H]3CCCCN3)c(-c3ccc(Cl)s3)c(O)nc2cc1Cl` , field pIC50: 7.28

###

biological target: Gonadotropin-releasing hormone receptor (Rattus norvegicus); test: Binding affinity to Gonadotropin-releasing hormone receptor (GnRHr) in rat pituitary cells
pIC50: −log10 of the molar value.
Label not fulfilled if pIC50 falls below 8; label fulfilled in every other case.

Item Cc1cc(C)cc(-c2c(O)nc3cc(Cl)c(NC(=O)Nc4cnccn4)cc3c2OCCC2CCCCN2)c1 (stereo not drawn) with pIC50 of 8 or above?
fulfilled

Could you please find out whether O=c1[nH]c2cc(Cl)c([N+](=O)[O-])cc2c(OCCC2CCCCN2)c1-c1ccc(Cl)cc1 (stereo not drawn) has pIC50 that meets 8 or exceeds it?
not fulfilled

Please indicate if the recorded pIC50 for O=c1[nH]c2cc(Cl)c([N+](=O)[O-])cc2c(OCCC2CCCCN2)c1-c1cc(Cl)cc(Cl)c1 (stereo not drawn) meets or exceeds 8.
not fulfilled

Please tell me: is the molecule O=c1[nH]c2cc(Cl)c([N+](=O)[O-])cc2c(OCCC2CCCCN2)c1-c1cccc(Cl)c1 (stereo not drawn) at or over 8 in terms of pIC50?
not fulfilled

Is the recorded value of pIC50 equal to or greater than 8 for this molecule? O=[N+]([O-])c1cc2c(OCCC3CCCCN3)c(-c3ccc(-c4ccccc4)c(Cl)c3)c(O)nc2cc1Cl (stereo not drawn)
not fulfilled

Dear colleague, could you confirm whether O=c1[nH]c2cc(Cl)c([N+](=O)[O-])cc2c(OCCC2CCCCN2)c1-c1ccc(Cl)s1 (stereo not drawn) has pIC50 at or above 8?
not fulfilled

###

molecular target: Gonadotropin-releasing hormone receptor (Rattus norvegicus, UniProt P30969); assay: Binding affinity to Gonadotropin-releasing hormone receptor (GnRHr) in rat pituitary cells
Sequence (P30969 whole entry): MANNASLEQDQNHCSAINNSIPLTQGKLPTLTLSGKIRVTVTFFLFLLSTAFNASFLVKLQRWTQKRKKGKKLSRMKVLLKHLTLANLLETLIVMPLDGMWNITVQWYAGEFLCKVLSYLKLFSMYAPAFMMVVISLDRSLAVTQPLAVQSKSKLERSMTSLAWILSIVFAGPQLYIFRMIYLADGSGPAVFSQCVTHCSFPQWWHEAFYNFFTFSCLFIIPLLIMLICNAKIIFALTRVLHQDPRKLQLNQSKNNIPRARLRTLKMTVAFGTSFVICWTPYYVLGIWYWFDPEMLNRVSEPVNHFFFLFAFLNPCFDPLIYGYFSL
For each of the compounds below, state its pIC50.
To interpret pIC50, take it as minus log10 of a concentration measured in moles per litre.

For reference, reported pIC50 for O=c1[nH]c2cc(Cl)c([N+](=O)[O-])cc2c(OCCC2CCCCN2)c1-c1ccc2ccccc2c1 (centres undefined) stands at 7.28

GET /value?item= Cc1cccc(-c2c(OCCC3CCCCN3)c3cc(NC(=O)NC4CC4)c(Cl)cc3[nH]c2=O)c1 (centres undefined) &field=pIC50 returns 7.64

GET /value?item= O=[N+]([O-])c1cc2c(OCCC3CCCCN3)c(-c3cccc(F)c3)c(O)nc2cc1Cl (centres undefined) &field=pIC50 returns 7.28

pIC50 recorded for this compound, Cc1ccc(-c2c(OCCC3CCCCN3)c3cc(NC(=O)NC4CC4)c(Cl)cc3[nH]c2=O)cc1C (centres undefined) , is 8.22

# pIC50 of Cc1cc(C)cc(-c2c(O)nc3cc(Cl)c(NC(=O)Nc4ccncc4)cc3c2OCCC2CCCCN2)c1 (centres undefined) = 7.40

# pIC50 of Cc1cc(C)cc(-c2c(O)nc3cc(Cl)c(CC(=O)Nc4ccncn4)cc3c2OCCC2CCCCN2)c1 (centres undefined) = 8.10

The compound listed as O=C(Nc1cc2c(OCCC3CCCCN3)c(-c3cccc(Br)c3)c(=O)[nH]c2cc1Cl)NC1CC1 (centres undefined) has a reported pIC50 of 8.22

pIC50 reported for this compound COc1ccc(-c2c(OCCC3CCCCN3)c3cc([N+](=O)[O-])c(Cl)cc3[nH]c2=O)cc1C (centres undefined) : 7.40

The recorded pIC50 for entry Cc1ccc(-c2c(O)nc3cc(Cl)c([N+](=O)[O-])cc3c2OCCC2CCCCN2)c(C)c1 (centres undefined) equals 6.40

Quick note, pIC50 for CC(=O)OCc1cc(C)cc(-c2c(O)nc3cc(Cl)c([N+](=O)[O-])cc3c2OCCC2CCCCN2)c1 (centres undefined) landed at 7.35

The measured pIC50 associated with `Cc1cc(C)cc(-c2c(O)nc3cc(Cl)c(NC(=O)c4cncnc4)cc3c2OCC[C@@H]2CCCCN2)c1` reads 7.60

For O=[N+]([O-])c1cc2c(OCCC3CCCCN3)c(-c3cccc(Br)c3)c(O)nc2cc1Cl (centres undefined) the compound record lists pIC50 as 7.40

The compound listed as Cc1cc(CC(N)=O)cc(-c2c(O)nc3cc(Cl)c([N+](=O)[O-])cc3c2OCCC2CCCCN2)c1 (centres undefined) has a reported pIC50 of 7.15

The compound Cc1cc(-c2c(O)nc3cc(Cl)c([N+](=O)[O-])cc3c2OCCC2CCCCN2)cc(C(C)O)c1 (centres undefined) showed pIC50 equal to 7.20
